# Lookup of reported HIV-1 Protease % Inhib keyed by entry
target: HIV-1 protease (Human immunodeficiency virus type 1 group M subtype B, UniProt P04585); assay: biochemical; conditions: dose 3.300 uM
Respond numerically; units are % and should not be typed.

# count of solved cases: 2
- compound: "N#Cc1ccc(S(=O)(=O)Nc2cccc(C(c3c(O)c4c(oc3=O)CCCCCC4)C3CC3)c2)cc1 (stereo not drawn) [Example 402]"
  reading_unit: "%"
  HIV-1 Protease % Inhib: 100.22
- compound: "CCCC(c1cccc(NS(=O)(=O)c2ccc(C#N)cc2)c1)c1c(O)c2c(oc1=O)CCCCCC2 (single isomer, unassigned)"
  reading_unit: "%"
  HIV-1 Protease % Inhib: 92.32

Quick one: HIV-1 Protease % Inhib for I.O=c1oc2c(c(O)c1C(c1cccc(NS(=O)(=O)CCCN3CCOCC3)c1)C1CC1)CCCCCC2 (stereo not drawn) [Example 365B (Third Title Compound)] ?
90.63

Quick one: HIV-1 Protease % Inhib for CCCCOc1ccc(S(=O)(=O)Nc2cccc(C(c3c(O)c4c(oc3=O)CCCCCC4)C3CC3)c2)cc1 (stereo not drawn) ?
85.17

Quick one: HIV-1 Protease % Inhib for CC(C)(C)OC(=O)N[C@@H](Cc1c[nH]cn1)C(=O)Nc1cccc(C(c2c(O)c3c(oc2=O)CCCCCC3)C2CC2)c1 (single isomer, unassigned) [Example 240] ?
113.39

Quick one: HIV-1 Protease % Inhib for Cc1cccc(Cl)c1S(=O)(=O)Nc1cccc(C(c2c(O)c3c(oc2=O)CCCCCC3)C2CC2)c1 (stereo not drawn) ?
64.32

* * *

target: HIV-1 protease (Human immunodeficiency virus type 1 group M subtype B); assay: biochemical; details: dose 30.000 uM; read-out: HIV-1 Protease % Inhib
Tick Fulfilled if inhibition at 30 µM is 90% or greater. Tick Not fulfilled if inhibition at 30 µM is less than 90%.

- compound: "O=c1oc2c(c(O)c1C(c1ccccc1)C1CC1)CCCCC2CC1CCOC1 (centres unmarked)"
  assayed_system: "HIV-1 protease (Human immunodeficiency virus type 1 group M subtype B)"
  cat: "Fulfilled"
- compound: "O=c1oc2c(c(O)c1C(c1cccc(NS(=O)(=O)c3c(Cl)cc(Cl)cc3Cl)c1)C1CC1)CCCCCC2 (centres unmarked)"
  assayed_system: "HIV-1 protease (Human immunodeficiency virus type 1 group M subtype B)"
  cat: "Not fulfilled"
- compound: "CC(O)CC1CCCCc2c1oc(=O)c(C(c1ccccc1)C1CC1)c2O (centres unmarked)"
  assayed_system: "HIV-1 protease (Human immunodeficiency virus type 1 group M subtype B)"
  cat: "Fulfilled"
- compound: "N#Cc1ccc(S(=O)(=O)NCc2ccc(C(c3c(O)c4c(oc3=O)CCCCCC4)C3CC3)o2)cc1 (centres unmarked)"
  assayed_system: "HIV-1 protease (Human immunodeficiency virus type 1 group M subtype B)"
  cat: "Not fulfilled"
- compound: "O=c1oc2c(c(O)c1C(c1ccccc1)C1CC1)CCCCC2CC1CCCCO1 (centres unmarked)"
  assayed_system: "HIV-1 protease (Human immunodeficiency virus type 1 group M subtype B)"
  cat: "Fulfilled"
- compound: "O=C(Nc1ccccc1)Nc1cccc(C(c2c(O)c3c(oc2=O)CCCCCC3)C2CC2)c1 (centres unmarked)"
  assayed_system: "HIV-1 protease (Human immunodeficiency virus type 1 group M subtype B)"
  cat: "Fulfilled"

Identify whether the reported inhibition at 30 µM of the following compound is 90% or greater: O=C(Nc1cccc(C(c2c(O)c3c(oc2=O)CCCCCC3)C2CC2)c1)c1ccc(Cl)cc1 (centres unmarked)
Fulfilled

Identify whether the reported inhibition at 30 µM of the following compound is 90% or greater: CN(C)c1cccc2c(S(=O)(=O)Nc3cccc(C(c4c(O)c5c(oc4=O)CCCCCC5)C4CC4)c3)cccc12 (centres unmarked)
Not fulfilled

Identify whether the reported inhibition at 30 µM of the following compound is 90% or greater: CCC(c1cccc(NC(=O)OCc2ccccc2)c1)c1c(O)c2c(oc1=O)CCCCCC2 (centres unmarked)
Not fulfilled

Identify whether the reported inhibition at 30 µM of the following compound is 90% or greater: COCCC1CCCCc2c1oc(=O)c(C(c1ccccc1)C1CC1)c2O (centres unmarked)
Fulfilled

Identify whether the reported inhibition at 30 µM of the following compound is 90% or greater: CC(C)C(c1cccc(NC(=O)OCc2ccccc2)c1)c1c(O)c2c(oc1=O)CCCCCC2 (centres unmarked)
Not fulfilled

Identify whether the reported inhibition at 30 µM of the following compound is 90% or greater: O=c1oc2c(c(O)c1C(c1ccc(CNS(=O)(=O)c3ccc(F)cc3)o1)C1CC1)CCCCCC2 (centres unmarked)
Not fulfilled

Identify whether the reported inhibition at 30 µM of the following compound is 90% or greater: O=c1oc2c(c(O)c1C(c1ccc(NS(=O)(=O)c3ccc(Cl)cc3)cc1)C1CC1)CCCCCC2 (centres unmarked)
Not fulfilled

Identify whether the reported inhibition at 30 µM of the following compound is 90% or greater: Nc1cc(N)cc(C(c2c(O)c3c(oc2=O)CCCCCC3)C2CC2)c1 (centres unmarked)
Not fulfilled

Identify whether the reported inhibition at 30 µM of the following compound is 90% or greater: CC(=O)Nc1nc(C)c(S(=O)(=O)Nc2cccc(C(c3c(O)c4c(oc3=O)CCCCCC4)C3CC3)c2)s1 (centres unmarked)
Fulfilled

* * *

# Lookup of reported inhibition at 10 µM keyed by entry
biological target: HIV-1 protease (Human immunodeficiency virus type 1 group M subtype B, UniProt P04585); assay: biochemical; details: read-out: HIV-1 Protease % Inhib, dose 10.000 uM

- compound: "CC(c1cccc(C#N)c1)c1c(O)c2ccccc2oc1=O (stereo not drawn)"
  reported_endpoint: "inhibition at 10 µM"
  reported_result: "< 10%"

Quick one: inhibition at 10 µM for CCCCC(=O)Nc1cccc(C(CC)c2c(O)c3ccccc3oc2=O)c1 (stereo not drawn) ?
< 10%

Quick one: inhibition at 10 µM for CCCCNC(=O)c1cccc(C(C)c2c(O)c3ccccc3oc2=O)c1 (stereo not drawn) ?
< 10%

* * *

molecular target: HIV-1 protease (Human immunodeficiency virus type 1 group M subtype B); test: biochemical; details: read-out: HIV-1 Protease % Inhib, dose 0.123 uM
reported_endpoint: inhibition at 0.123 µM (%)
Respond numerically; units are % and should not be typed.

# count of solved cases: 2
- compound: "O=c1oc2c(c(O)c1C(c1cccc(NS(=O)(=O)c3cccnc3)c1)C1CC1)CCCCCC2 (stereo not drawn)"
  inhibition at 0.123 µM (%): 79.5
- compound: "O=c1oc2c(c(O)c1C(c1cccc(NS(=O)(=O)c3ccc(Cl)cc3)c1)C1CC1)CCCCCC2 (stereo not drawn)"
  inhibition at 0.123 µM (%): 78.5

Let us examine a further case.
Quick one: inhibition at 0.123 µM for COc1ccc(S(=O)(=O)Nc2cccc(C(c3c(O)c4c(oc3=O)CCCCCC4)C3CC3)c2)cc1 (stereo not drawn) ?
79.3

* * *

target: HIV-1 protease (Human immunodeficiency virus type 1 group M subtype B); test: biochemical; details: read-out: HIV-1 FITC KI
# Lookup of reported Ki keyed by entry
Respond numerically; units are nM and should not be typed.

# count of solved cases: 4
- compound: "CCC(c1cccc(NC(=O)CCNC(=O)OC(C)(C)C)c1)c1c(O)c2c(oc1=O)CCCCCC2 (centres unmarked) [Example 219]"
  reported_endpoint: "Ki"
  reported_result: 10.4
- compound: "CC(=O)Nc1ccc(S(=O)(=O)Nc2cccc(C(c3c(O)c4c(oc3=O)CCCCCC4)C3CC3)c2)cc1 (centres unmarked) [Example 307]"
  reported_endpoint: "Ki"
  reported_result: 7.6
- compound: "I.O=c1oc2c(c(O)c1C(c1cccc(NS(=O)(=O)CCCN3CCOCC3)c1)C1CC1)CCCCCC2 (centres unmarked) [Example 365B (Third Title Compound)]"
  reported_endpoint: "Ki"
  reported_result: 14.3
- compound: "CC(C)(C)OC(=O)NCC(=O)Nc1cccc(C(c2c(O)c3c(oc2=O)CCCCCC3)C2CC2)c1 (single isomer, unassigned) [Example 238]"
  reported_endpoint: "Ki"
  reported_result: 13.4

Quick one: Ki for CCS(=O)(=O)Nc1cccc(C(c2c(O)c3c(oc2=O)CCCCCC3)C2CC2)c1 (centres unmarked) [Example 318] ?
9.9

Quick one: Ki for O=c1oc2c(c(O)c1C(c1cccc(NS(=O)(=O)c3ccc(O)cc3)c1)C1CC1)CCCCCC2 (centres unmarked) [Example 407] ?
6.6

Quick one: Ki for Cc1noc(C)c1S(=O)(=O)Nc1cccc(C(c2c(O)c3c(oc2=O)CCCCCC3)C2CC2)c1 (centres unmarked) [Example 338] ?
9.8

Quick one: Ki for CCCC1CCCCCc2c1oc(=O)c([C@H](c1ccccc1)C1CC1)c2O (mixture of isomers) [Example 235] ?
11

* * *

molecular target: HIV-1 protease (Human immunodeficiency virus type 1 group M subtype B); experiment: biochemical; settings: dose 30.000 uM; read-out: HIV-1 Protease % Inhib
Structures can show the parent of a compound that is named as a salt.
reported_endpoint: inhibition at 30 µM (%)
Respond numerically; units are % and should not be typed.

- compound: "CCC(c1cccc(N)c1)c1c(O)c2c(oc1=O)CCCCCC2 (centres unmarked) [Example 218]"
  inhibition at 30 µM [%]: 91.4
- compound: "COc1cccc(OC)c1S(=O)(=O)Nc1cccc(C(c2c(O)c3c(oc2=O)CCCCCC3)C2CC2)c1 (centres unmarked) [Example 334]"
  inhibition at 30 µM [%]: 89.5
- compound: "CCC(c1cccc(NC(=O)CCN)c1)c1c(O)c2c(oc1=O)CCCCCC2 (centres unmarked) [Example 220, monohydrochloride]"
  inhibition at 30 µM [%]: 101
- compound: "CC(C)(C)OC(=O)NCc1ccc(C(c2c(O)c3c(oc2=O)CCCCCC3)C2CC2)o1 (centres unmarked) [Example 480]"
  inhibition at 30 µM [%]: 78.2
- compound: "O=c1oc2c(c(O)c1C(c1cccc(N(CCc3ccccc3)S(=O)(=O)c3ccccc3)c1)C1CC1)CCCCCC2 (centres unmarked) [Example 246]"
  inhibition at 30 µM [%]: 49.7
- compound: "O=C(Nc1cccc(C(c2c(O)c3c(oc2=O)CCCCCC3)C2CC2)c1)c1cccc2ccccc12 (centres unmarked) [Example 212]"
  inhibition at 30 µM [%]: 69.5
- compound: "N#Cc1ccc(S(=O)(=O)NCc2ccc(C(c3c(O)c4c(oc3=O)CCCCCC4)C3CC3)s2)cc1 (centres unmarked) [Example 392]"
  inhibition at 30 µM [%]: 99.7

Quick one: inhibition at 30 µM for O=C(C=Cc1ccccc1)Nc1cccc(C(c2c(O)c3c(oc2=O)CCCCCC3)C2CC2)c1 (centres unmarked) [Example 208] ?
84.4
